Test system: U2OS
Assay: cell viability relative to DMSO; higher = less toxic
Settings: 72 h; 100 nM
property.measured: cell viability (%)
Your answer is read as %, so omit the unit and give the number.

molecule	cell viability [%]
CN(C)C/C=C/C(=O)Nc1ccc(C(=O)Nc2cccc(Nc3ncc(Cl)c(-c4c[nH]c5ccccc45)n3)c2)cc1	58.2
COc1ccc(S(=O)(=O)Nc2cc(Cl)cc(Cl)c2OC)cc1N1CCNCC1	105
C(#CCN1CCCC1)CN1CCCC1	91.5
COCc1c(-c2ccc(NC(=O)Nc3cc(C(F)(F)F)ccc3F)c(F)c2)c2c(N)ncnn2c1CN1CCOCC1	101
CC(C)[N+](C)(CCOC(=O)C1c2ccccc2Oc2ccccc21)C(C)C	102

What measured cell viability goes with `O=C(OC[C@H]1O[C@@H](OC(=O)c2cc(O)c(O)c(OC(=O)c3cc(O)c(O)c(O)c3)c2)[C@H](OC(=O)c2cc(O)c(O)c(OC(=O)c3cc(O)c(O)c(O)c3)c2)[C@@H](OC(=O)c2cc(O)c(O)c(OC(=O)c3cc(O)c(O)c(O)c3)c2)[C@@H]1OC(=O)c1cc(O)c(O)c(OC(=O)c2cc(O)c(O)c(O)c2)c1)c1cc(O)c(O)c(OC(=O)c2cc(O)c(O)c(O)c2)c1` ? 93.7

What measured cell viability goes with O=C(O)CCC/C=C\C[C@@H]1[C@@H](/C=C/[C@@H](O)COc2cccc(Cl)c2)[C@H](O)C[C@@H]1O (racemic) [cloprostenol-(+/-)] ? 99.9

What measured cell viability goes with `CN(C)CC/C=C1/c2ccccc2Sc2ccc(Cl)cc21` ? 102

What measured cell viability goes with `COc1ccc(-c2cc(C(F)F)nn2-c2ccc(S(N)(=O)=O)cc2)cc1F` ? 93.7

What measured cell viability goes with `C[C@H](Cn1cnc2c(N)ncnc21)OCP(=O)(O)O` ? 102

What measured cell viability goes with `NCc1cc(O)no1` ? 99.6

What measured cell viability goes with `CC(C)S(=O)(=O)NC[C@H](C)c1ccc(-c2ccc(CCNS(C)(=O)=O)cc2)cc1` ? 100

What measured cell viability goes with `O=c1[nH]c(=O)n([C@H]2C[C@H](O)[C@@H](CO)O2)cc1/C=C/Br` ? 94.5

What measured cell viability goes with `CC(C)N1CCN(c2ccc(C(=O)c3c(-c4ccc(O)cc4)sc4cc(O)ccc34)cc2)CC1` ? 99

What measured cell viability goes with `O=C(Oc1ccccc1C(=O)O)c1ccccc1O` ? 101

What measured cell viability goes with COCCCOc1ccnc(C[S+]([O-])c2nc3ccccc3[nH]2)c1C (stereo not given) ? 100

What measured cell viability goes with Nc1ncnc2c1ncn2C1CCCO1 (stereo not given) ? 94.8

What measured cell viability goes with CCCC(CCC)C(=O)NCC(N)=O [valrocemide] ? 97.7

What measured cell viability goes with `CC(C)(Cc1ccc2ccccc2c1)NC[C@@H](O)COc1cccc(Cl)c1C#N` ? 105

What measured cell viability goes with `CC(C)(C)c1ccc(NC(=O)N2CCN(c3ncccc3Cl)CC2)cc1` ? 97.4

What measured cell viability goes with Cc1cc(OI)c(C(C)C)cc1-c1cc(C(C)C)c(OI)cc1C [thymol-iodide] ? 103

What measured cell viability goes with `C=C(C)[C@@H]1CCC(C)=C[C@H]1c1c(OC)cc(C)cc1OC` ? 97

What measured cell viability goes with `NC(=S)N/N=C/c1coc2ccccc2c1=O.[Cl][Cu][Cl]` ? 101

What measured cell viability goes with CN1C(=O)COc2c(C(=O)NC3CN4CCC3CC4)cc(Cl)cc21 (stereo not given) ? 95.6

What measured cell viability goes with `CC(C)CCN1c2nc(Nc3cc(F)c(O)c(F)c3)ncc2N(C)C(=O)[C@@H]1C` ? 99

====

Test system: Vero E6
Assay: drug sensitivity score (DSS) for viability; higher = more toxic; extreme values may be limits of the assay
Details: 72 h
property.measured: drug sensitivity score

Solved cases (3 shown):
molecule	tested.target	observed.result
CC(C)CCN1c2nc(Nc3cc(F)c(O)c(F)c3)ncc2N(C)C(=O)[C@@H]1C	Vero E6	6.1
COCCCOc1ccnc(C[S+]([O-])c2nc3ccccc3[nH]2)c1C (stereo not given)	Vero E6	0
Sc1ncnc2nc[nH]c12	Vero E6	1.1

What measured drug sensitivity score goes with `COCc1c(-c2ccc(NC(=O)Nc3cc(C(F)(F)F)ccc3F)c(F)c2)c2c(N)ncnn2c1CN1CCOCC1` ? 3.7

What measured drug sensitivity score goes with `N[C@@H]1c2cccnc2[C@H](OC(=O)N2CCC(n3c(=O)[nH]c4ncccc43)CC2)CC[C@H]1c1cccc(F)c1F` ? 0

====

Test system: HepG2
Assay: cell viability relative to DMSO; higher = less toxic
Conditions: 72 h; 10 nM
property.measured: cell viability (%)
Your answer is read as %, so omit the unit and give the number.

Solved cases (8 shown):
molecule	tested.target	cell viability, %
CCCCCCCCCCCCCCCC(=O)OC(C)C [isopropyl-palmitate]	HepG2	102
CN1CC2c3ccccc3Oc3ccc(Cl)cc3C2C1 (centres undefined)	HepG2	106
O=C(Oc1ccccc1C(=O)O)c1ccccc1O	HepG2	86.4
Cc1sc2c(c1C)C(c1ccc(Cl)cc1)=N[C@@H](CC(=O)Nc1ccc(O)cc1)c1nnc(C)n1-2	HepG2	110
C(#CCN1CCCC1)CN1CCCC1	HepG2	103
CCN1CCN(C(=O)Cc2ccc(Nc3ncc(F)c(Nc4ccc(C(=O)Nc5ccccc5Cl)cc4)n3)cc2)CC1	HepG2	90.7
CN1C(=O)N(c2cc(Cl)cc(Cl)c2)C(=O)[C@@]1(C)Cc1ccc(Br)cc1	HepG2	101
COc1cc(Oc2ccnc3cc(OC)c(OC)cc23)ccc1NC(=O)NC(C)c1nccs1 (centres undefined)	HepG2	104

What measured cell viability goes with Cn1c2cc([S+](C)[O-])sc2c2cnn(Cc3cccc(N)c3)c(=O)c21 (centres undefined) ? 103

====

Test system: A549-ACE2 infected with SARS-CoV-2
Test: SARS-CoV-2 infection rate relative to DMSO; higher = more infection
Conditions: 1 µM; 24 h
Reported SARS-CoV-2 infection rate values for a set of compounds
Your answer is read as %, so omit the unit and give the number.

What measured SARS-CoV-2 infection rate goes with `CN1CCN(Cc2ccc(-c3cnc4[nH]cc(-c5ccc6[nH]ccc6c5)c4c3)cc2)CC1` ? 85

What measured SARS-CoV-2 infection rate goes with `Fc1ccc(-n2cc(CCCCN3CCC4(CC3)OCc3ccccc34)c3ccccc32)cc1` ? 60

What measured SARS-CoV-2 infection rate goes with CSc1ccc2c(c1)[C@H](N1CCN(C)CC1)Cc1ccccc1S2 (racemic) [metitepine] ? 88

What measured SARS-CoV-2 infection rate goes with `C=C1C(=O)[C@]23[C@H](O)[C@H]1CC[C@H]2[C@@]12CO[C@]3(O)[C@@H](O)[C@@H]1C(C)(C)CC[C@@H]2O` ? 104

====

Reported cell viability values for a set of compounds
Test system: Calu-3
Test: cell viability relative to DMSO; higher = less toxic
Details: 72 h; 10000 nM
The answer should read as a number with its unit following.

compound	property.measured	observed.result
Nc1ccc2ncnc(NCCc3ccc(Oc4ccccc4)cc3)c2c1 [EVP4593]	cell viability	86.5%

What measured cell viability goes with COCc1c(-c2ccc(NC(=O)Nc3cc(C(F)(F)F)ccc3F)c(F)c2)c2c(N)ncnn2c1CN1CCOCC1 [ACTB-1003] ? 65.2%

What measured cell viability goes with C=C(C)[C@@H]1CC[C@]2(C(=O)O)CC[C@]3(C)[C@H](CC[C@@H]4[C@@]5(C)CC[C@H](O)C(C)(C)[C@@H]5CC[C@]43C)[C@@H]12 [betulinic-acid] ? 100%

====

Tested on: HepG2
Assay: cell viability relative to DMSO; higher = less toxic
Conditions: 72 h; 1 nM
Reported cell viability values for a set of compounds

compound	tested.target	cell viability
N=C(N)NCCC[C@H](NC(=O)c1sccc1NS(=O)(=O)c1cccc2nsnc12)C(=O)O	HepG2	105%
COc1ccc(C2=N[C@@H](c3ccc(Cl)cc3)[C@@H](c3ccc(Cl)cc3)N2C(=O)N2CCNC(=O)C2)c(OC(C)C)c1	HepG2	104%
CCCN[C@@H]1CCc2c(OC)cccc2[C@@H]1C [AJ76-(+)]	HepG2	88.5%
CC(C)C[C@H](NC(=O)OCc1ccccc1)C(=O)N[C@@H](C[C@@H]1CCNC1=O)C(O)S(=O)(=O)O (some centres not stated) [GC376 sodium]	HepG2	101%
CC(C)OC(=O)[C@H](C)N[P@](=O)(CO[C@H](C)Cn1cnc2c(N)ncnc21)Oc1ccccc1 [tenofovir-alafenamide]	HepG2	98.8%
COc1cc2c(cc1OC)[C@H](C)NCC2 [Isoquinoline,-6,7-dimethoxy-1-methyl-1,2,3,4-tetrahydro,]	HepG2	100%

Now turn to the next compound.
Give cell viability (HepG2) of the following compound: `CN1CCN(Cc2ccc(-c3cnc4[nH]cc(-c5ccc6[nH]ccc6c5)c4c3)cc2)CC1` 111%
